This collection of values is drawn from patent US20100260765A1.

Target: human KDR (VEGFR2) on cells (human, UniProt P35968 20-1356)
Sequence (P35968 20-1356): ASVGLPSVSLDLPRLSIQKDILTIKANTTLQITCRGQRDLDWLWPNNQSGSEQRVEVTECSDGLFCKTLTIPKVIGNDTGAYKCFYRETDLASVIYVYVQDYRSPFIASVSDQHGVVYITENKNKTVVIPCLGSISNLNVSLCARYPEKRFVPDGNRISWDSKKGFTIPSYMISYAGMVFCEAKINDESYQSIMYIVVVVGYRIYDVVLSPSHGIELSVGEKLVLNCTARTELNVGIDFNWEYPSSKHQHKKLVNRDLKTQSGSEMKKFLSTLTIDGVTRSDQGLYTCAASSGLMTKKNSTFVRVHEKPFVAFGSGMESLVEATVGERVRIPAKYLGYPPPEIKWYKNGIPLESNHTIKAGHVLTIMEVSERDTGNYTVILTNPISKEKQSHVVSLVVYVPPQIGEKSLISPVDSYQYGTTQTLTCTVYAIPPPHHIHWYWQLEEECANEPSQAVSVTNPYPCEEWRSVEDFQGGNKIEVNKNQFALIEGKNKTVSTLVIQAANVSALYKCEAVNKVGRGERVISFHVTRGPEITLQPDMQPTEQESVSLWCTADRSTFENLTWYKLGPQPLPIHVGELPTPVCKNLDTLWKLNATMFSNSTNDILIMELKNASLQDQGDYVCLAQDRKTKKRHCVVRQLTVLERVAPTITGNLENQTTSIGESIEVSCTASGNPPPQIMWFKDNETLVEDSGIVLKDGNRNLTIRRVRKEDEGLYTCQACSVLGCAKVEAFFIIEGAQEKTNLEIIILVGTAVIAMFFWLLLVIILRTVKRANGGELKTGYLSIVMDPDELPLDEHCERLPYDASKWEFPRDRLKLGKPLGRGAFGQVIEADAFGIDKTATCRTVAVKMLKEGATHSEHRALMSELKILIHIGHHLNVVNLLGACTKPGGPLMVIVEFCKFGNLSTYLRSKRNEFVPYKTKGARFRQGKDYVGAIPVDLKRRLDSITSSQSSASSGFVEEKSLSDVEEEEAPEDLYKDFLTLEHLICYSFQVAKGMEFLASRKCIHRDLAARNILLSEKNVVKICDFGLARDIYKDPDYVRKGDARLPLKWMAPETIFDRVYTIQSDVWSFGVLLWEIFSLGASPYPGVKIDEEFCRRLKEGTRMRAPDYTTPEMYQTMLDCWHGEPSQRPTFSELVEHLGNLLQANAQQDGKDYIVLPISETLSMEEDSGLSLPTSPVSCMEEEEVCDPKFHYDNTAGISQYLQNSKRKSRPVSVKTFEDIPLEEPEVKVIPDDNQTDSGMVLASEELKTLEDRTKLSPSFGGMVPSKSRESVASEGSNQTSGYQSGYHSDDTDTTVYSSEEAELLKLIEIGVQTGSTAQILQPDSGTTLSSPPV
Test: cell-based or functional assay
MEASURED PARAMETER: HUVEC survival (n = 1) 1:10 dilution of supernatant (RLU)

[[record]]
binder = "anti-KDR monoclonal antibody 30F6 (antibody, V domains shown, Fully human mAb from XenoMouse (IgG2 or IgG4 strain); hybridoma supernatant) VH: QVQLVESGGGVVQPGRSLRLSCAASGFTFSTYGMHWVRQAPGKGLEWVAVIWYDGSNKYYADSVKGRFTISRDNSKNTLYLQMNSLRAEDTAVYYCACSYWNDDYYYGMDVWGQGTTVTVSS VL: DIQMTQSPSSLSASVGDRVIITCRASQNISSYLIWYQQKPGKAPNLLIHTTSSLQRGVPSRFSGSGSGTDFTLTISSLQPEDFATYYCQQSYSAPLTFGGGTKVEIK"
result = "14800 RLU"

[[record]]
binder = "anti-KDR monoclonal antibody 32G7 (antibody, V domains shown, Fully human mAb from XenoMouse (IgG2 or IgG4 strain); hybridoma supernatant) VH: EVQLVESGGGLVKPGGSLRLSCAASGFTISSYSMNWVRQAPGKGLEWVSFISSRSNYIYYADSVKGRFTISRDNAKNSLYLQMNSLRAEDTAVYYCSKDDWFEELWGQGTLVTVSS VL: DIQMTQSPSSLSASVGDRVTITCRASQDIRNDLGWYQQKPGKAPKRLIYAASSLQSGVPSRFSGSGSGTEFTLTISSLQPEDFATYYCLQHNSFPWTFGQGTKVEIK"
result = "24900 RLU"

[[record]]
binder = "anti-KDR monoclonal antibody 22B8 (antibody, V domains shown, Fully human mAb from XenoMouse (IgG2 or IgG4 strain); hybridoma supernatant) VH: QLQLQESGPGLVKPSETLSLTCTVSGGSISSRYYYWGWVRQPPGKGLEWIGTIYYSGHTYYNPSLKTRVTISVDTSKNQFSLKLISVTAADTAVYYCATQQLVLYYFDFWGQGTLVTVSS VL: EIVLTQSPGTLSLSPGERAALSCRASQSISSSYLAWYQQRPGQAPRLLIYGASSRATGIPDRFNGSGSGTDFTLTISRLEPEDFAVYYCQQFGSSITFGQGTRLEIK"
result = "12900 RLU"

[[record]]
binder = "anti-KDR monoclonal antibody 32F4 (antibody, V domains shown, Fully human mAb from XenoMouse (IgG2 or IgG4 strain); hybridoma supernatant) VH: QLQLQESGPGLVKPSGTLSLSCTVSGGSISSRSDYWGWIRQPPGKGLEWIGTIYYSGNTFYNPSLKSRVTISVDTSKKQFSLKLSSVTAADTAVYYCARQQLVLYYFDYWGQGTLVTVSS VL: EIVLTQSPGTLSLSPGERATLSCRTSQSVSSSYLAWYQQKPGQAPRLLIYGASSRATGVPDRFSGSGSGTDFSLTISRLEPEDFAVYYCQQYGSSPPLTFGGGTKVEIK"
result = "20100 RLU"

[[record]]
binder = "anti-KDR monoclonal antibody 33C3 (antibody, V domains shown, Fully human mAb from XenoMouse (IgG2 or IgG4 strain); hybridoma supernatant) VH: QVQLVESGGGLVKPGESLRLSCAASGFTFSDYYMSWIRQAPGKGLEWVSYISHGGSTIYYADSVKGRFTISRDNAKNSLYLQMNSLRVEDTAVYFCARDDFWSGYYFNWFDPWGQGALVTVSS VL: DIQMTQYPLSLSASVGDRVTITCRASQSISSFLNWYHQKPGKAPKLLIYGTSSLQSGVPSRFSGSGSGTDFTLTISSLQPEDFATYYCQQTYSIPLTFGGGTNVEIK"
result = "6540 RLU"

